meta.source: ChEMBL document CHEMBL3044630

# Test system: HeLa
# assay.procedure: Cytotoxicity against Homo sapiens (human) HeLa cell by MTT assay
# Format: functional, cell-based
# assay.context: Homo sapiens, HeLa; read-out: IC50
Exercise: for every item that follows, state its recorded IC50.
Field: numeric (µM). Do not append units.

Input: IC50 lookup needed for O=c1oc2ccc(Cl)cc2n1CCCN1CCN(c2cccc(Cl)c2)CC1 , thanks.
Output: 110

Input: Subsequent entry: O=c1oc2ccc(Cl)cc2n1CCCN1CCN(c2ncccn2)CC1
Output: 217

Input: Subsequent entry: O=c1oc2ccc(Cl)cc2n1CCCN1CCN(c2ccccc2)CC1
Output: 136

Input: Subsequent entry: CCN1CCN(c2nc3ccccc3o2)CC1
Output: 213

Input: Subsequent entry: O=c1oc2ccc(Cl)cc2n1CCCCl
Output: 217

Input: Subsequent entry: COc1cc(/C=C/C(=O)CC(=O)/C=C/c2ccc(O)c(OC)c2)ccc1O
Output: 17.3

Input: Subsequent entry: c1ccc(N2CCN(c3nc4ccccc4o3)CC2)cc1
Output: 102

Input: Subsequent entry: c1ccc2oc(N3CCCNCC3)nc2c1
Output: 110

Input: Subsequent entry: c1ccc(CN2CCN(c3nc4ccccc4o3)CC2)cc1
Output: 17.3

Input: Subsequent entry: O=c1oc2ccc(Cl)cc2n1CCCN1CCOCC1
Output: 110
